System: A2058
assay-method-text: Cell growth inhibition assay (CellTiter-Glo)
Assay type: cell-based, human
setup-conditions: ratio IC50[IMR-90]:IC50[tumor cell line]
Some compounds, each annotated with its measured Selectivity vs. IMR-90, A2058.
experimental-endpoint: Selectivity vs. IMR-90, A2058

compound	recorded-value
C=C(C)C[C@H](OC)[C@H](O)C(=O)N[C@@H](OC)[C@@H]1C[C@H](O)C(C)(C)[C@@H](C[C@H](O)[C@@H](C)[C@H]2Cc3c(C)c(O)cc(O)c3C(=O)O2)O1 [epi-C(11)-Irciniastatin A]	85
C=C(C)C[C@H](OC)[C@H](O)C(=O)N[C@@H](OC)[C@@H]1CC(=C)C(C)(C)[C@@H](C[C@H](O)[C@@H](C)[C@H]2Cc3c(C)c(O)cc(O)c3C(=O)O2)O1 [C(11)-Exomethylene-Irciniastatin B]	70
C=C(C)C[C@H](OC)[C@H](O)C(=O)N[C@@H](OC)[C@@H]1C[C@@H](O)C(C)(C)[C@@H](C[C@H](O)[C@@H](C)[C@H]2Cc3c(C)c(O)cc(O)c3C(=O)O2)O1 [Irciniastatin A, (+)-Irciniastatin A]	68
C=C(C)C[C@H](OC)[C@H](O)C(=O)N[C@@H](OC)[C@@H]1C/C(=N/OC)C(C)(C)[C@@H](C[C@H](O)[C@@H](C)[C@H]2Cc3c(C)c(O)cc(O)c3C(=O)O2)O1 (stereo in doubt)	92
C=C(C)C[C@H](OC)[C@H](O)C(=O)N[C@@H](OC)[C@@H]1CC(=O)C(C)(C)[C@@H](C[C@H](O)[C@@H](C)[C@H]2Cc3c(C)c(O)cc(O)c3C(=O)O2)O1 [Irciniastatin B, (−)-Irciniastatin B]	114
C=C(C)C[C@H](OC)[C@H](O)C(=O)N[C@@H](OC)[C@@H]1C[C@@H](OC(C)=O)C(C)(C)[C@@H](C[C@H](O)[C@@H](C)[C@H]2Cc3c(C)c(O)cc(O)c3C(=O)O2)O1	68
C=C(C)C[C@H](OC)[C@H](O)C(=O)N[C@@H](OC)[C@@H]1C[C@@H](OC(=O)c2ccccc2)C(C)(C)[C@@H](C[C@H](O)[C@@H](C)[C@H]2Cc3c(C)c(O)cc(O)c3C(=O)O2)O1	30
